Target: COP1-AGTL (Homo sapiens) (UniProt Q96AD5+Q8NHY2)
Sequence (Q8NHY2 whole entry, looked up): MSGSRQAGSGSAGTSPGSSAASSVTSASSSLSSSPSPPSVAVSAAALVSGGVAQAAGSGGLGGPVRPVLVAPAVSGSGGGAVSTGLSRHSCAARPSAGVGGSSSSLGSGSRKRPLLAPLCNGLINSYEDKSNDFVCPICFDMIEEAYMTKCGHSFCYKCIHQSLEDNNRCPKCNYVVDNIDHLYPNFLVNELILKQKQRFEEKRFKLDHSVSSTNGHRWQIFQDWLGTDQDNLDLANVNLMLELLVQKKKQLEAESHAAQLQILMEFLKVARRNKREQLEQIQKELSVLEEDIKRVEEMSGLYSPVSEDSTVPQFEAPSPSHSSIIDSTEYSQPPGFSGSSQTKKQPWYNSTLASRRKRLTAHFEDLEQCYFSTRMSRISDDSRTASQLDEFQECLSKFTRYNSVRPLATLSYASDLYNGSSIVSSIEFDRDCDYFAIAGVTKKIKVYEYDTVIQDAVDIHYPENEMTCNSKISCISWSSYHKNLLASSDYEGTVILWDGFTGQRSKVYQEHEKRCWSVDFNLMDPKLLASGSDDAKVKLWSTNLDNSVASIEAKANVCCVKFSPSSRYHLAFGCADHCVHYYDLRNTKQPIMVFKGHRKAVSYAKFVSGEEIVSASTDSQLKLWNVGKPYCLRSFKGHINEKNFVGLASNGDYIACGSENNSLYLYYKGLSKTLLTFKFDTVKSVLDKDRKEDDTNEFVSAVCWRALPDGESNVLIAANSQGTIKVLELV
Sequence (Q96AD5 whole entry, looked up): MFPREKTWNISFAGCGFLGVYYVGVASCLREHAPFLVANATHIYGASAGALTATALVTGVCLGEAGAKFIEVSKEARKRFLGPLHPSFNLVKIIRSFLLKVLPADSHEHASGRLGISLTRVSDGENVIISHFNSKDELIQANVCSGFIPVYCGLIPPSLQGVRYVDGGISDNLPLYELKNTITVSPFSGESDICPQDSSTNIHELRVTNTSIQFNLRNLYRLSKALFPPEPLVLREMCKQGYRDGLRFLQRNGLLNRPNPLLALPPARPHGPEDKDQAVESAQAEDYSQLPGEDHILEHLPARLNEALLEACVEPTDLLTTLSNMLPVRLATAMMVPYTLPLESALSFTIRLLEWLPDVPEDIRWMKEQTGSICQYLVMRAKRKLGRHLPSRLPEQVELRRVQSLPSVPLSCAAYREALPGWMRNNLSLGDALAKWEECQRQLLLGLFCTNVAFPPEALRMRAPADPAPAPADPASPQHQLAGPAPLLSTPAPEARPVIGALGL
Test: Induction of COP1 to ATGL stabilization (unknown origin) expressed in HEK293-A cells assessed as reduction in ATGL ubiquitination incubated for 6 hrs by Western blotting analysis
Type: cell-based
Calls of active or inactive are those of the source. The calls are words filed in the database; no cut-off is given here.
Outcome measure: Activity

Lookup: Value lookup for Activity; key = COCCn1cnc2ccc(NC(=O)Nc3cccc(C(C)=O)c3)c(-c3ccc(OC)nc3)c2c1=O
Found: inactive

Lookup: Value lookup for Activity; key = COCCn1cnc2ccc(NC(=O)Nc3cccc(C(=O)C(F)(F)F)c3)cc2c1=O
Found: inactive
